The origin of these recorded values is paper PMC10005754.

# MEASURED_ON: P-glycoprotein (PGP/MDR1) (Homo sapiens)
# Construct: recombinant human PGP in membrane vesicles (Human MDR1 vesicles)
# Sequence (P08183 whole entry): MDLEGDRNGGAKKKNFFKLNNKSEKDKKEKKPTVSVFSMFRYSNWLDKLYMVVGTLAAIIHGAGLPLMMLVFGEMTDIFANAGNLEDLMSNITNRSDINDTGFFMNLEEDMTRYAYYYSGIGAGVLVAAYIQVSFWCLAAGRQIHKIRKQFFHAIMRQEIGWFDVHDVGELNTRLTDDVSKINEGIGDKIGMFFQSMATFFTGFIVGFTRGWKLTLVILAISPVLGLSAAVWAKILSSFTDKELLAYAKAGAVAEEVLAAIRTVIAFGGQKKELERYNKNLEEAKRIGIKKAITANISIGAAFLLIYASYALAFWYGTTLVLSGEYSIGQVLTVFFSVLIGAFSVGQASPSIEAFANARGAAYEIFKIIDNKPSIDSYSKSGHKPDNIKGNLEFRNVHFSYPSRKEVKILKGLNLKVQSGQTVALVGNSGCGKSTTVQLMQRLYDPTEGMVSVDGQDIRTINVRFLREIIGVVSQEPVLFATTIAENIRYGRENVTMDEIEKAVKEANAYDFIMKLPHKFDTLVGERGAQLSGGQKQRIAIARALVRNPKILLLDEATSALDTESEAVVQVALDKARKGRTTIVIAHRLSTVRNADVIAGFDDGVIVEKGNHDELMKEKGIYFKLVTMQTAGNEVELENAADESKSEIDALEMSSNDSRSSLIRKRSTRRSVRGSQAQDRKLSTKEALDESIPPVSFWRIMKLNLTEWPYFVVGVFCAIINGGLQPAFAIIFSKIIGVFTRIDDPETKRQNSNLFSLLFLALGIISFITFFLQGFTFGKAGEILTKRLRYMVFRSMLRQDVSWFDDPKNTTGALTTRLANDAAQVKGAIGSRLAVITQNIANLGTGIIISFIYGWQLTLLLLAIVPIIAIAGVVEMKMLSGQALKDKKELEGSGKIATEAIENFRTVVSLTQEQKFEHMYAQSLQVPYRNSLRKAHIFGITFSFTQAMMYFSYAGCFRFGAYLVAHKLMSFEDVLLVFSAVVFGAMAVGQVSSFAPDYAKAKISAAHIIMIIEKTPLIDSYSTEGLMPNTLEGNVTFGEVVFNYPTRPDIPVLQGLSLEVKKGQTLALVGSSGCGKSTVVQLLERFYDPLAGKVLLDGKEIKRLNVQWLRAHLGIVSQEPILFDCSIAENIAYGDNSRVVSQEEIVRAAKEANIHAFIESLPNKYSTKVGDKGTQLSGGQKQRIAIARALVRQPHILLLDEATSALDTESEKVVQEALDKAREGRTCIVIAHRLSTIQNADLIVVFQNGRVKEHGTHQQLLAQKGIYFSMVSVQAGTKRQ
# TEST_METHOD_NOTES: ATPase stimulation (ADP-Glo Max) in human MDR1 vesicles; also Calcein-AM retention in HepG2 cells
PROPERTY_LABEL: EC50

Exercise: Specify EC50 for `OC[C@H]1O[C@H](O[C@]2(CCl)O[C@H](CCl)[C@@H](O)[C@@H]2O)[C@H](O)[C@@H](O)[C@H]1Cl` , system P-glycoprotein (PGP/MDR1) (Homo sapiens).
Key: 0.056 nM
